Tested on: TO-N3-2 (biotin conjugate)
Test: pull-down binding Z-score (relative to library population); higher = stronger binding
Conditions: RNA library: Library-2
Quick list: pull-down binding Z-score per entry.
MEASURED_PROPERTY: pull-down binding Z-score

residue_string="AUCCAGUCCACUUAAUUCUGAGAAAGUCCACAGACUGGAUCGGGUCUUGGAUUUUAGCUGGAUUCAU [hsa-mir-6082]" observed_result=0.4
residue_string="GUUUCUAAAAAAAUAAAAAGUUAAAAAAAUUUAUGUUAACGUGUAAUGUGUUUACUAAUUUUUUUUUUUUUUUUUGGAGAC [hsa-mir-3908]" observed_result=-0.771
residue_string="AUUCUGAAGUUGUUCUUAAAAAGUUGAAGAAGUCUUUGAAU [DMSMaPseq_invitro_SARS-CoV-2_Motif_213]" observed_result=-0.353
residue_string="UGAUGGUGUUCCAUUUGUAGUUUCAACUGGAUACCACUUCA [DMSMaPseq_invitro_SARS-CoV-2_Motif_261]" observed_result=-0.82
residue_string="UUUAUGCCUGUUAGCAUGAAAAAAGAGGCUGAGAA [hsa-mir-7515]" observed_result=0.0418
residue_string="CCGGCCCGUUAGUUGCCCGGGCCCG [hsa-mir-3181]" observed_result=0.914
residue_string="CUUGCAGAAUUAAUGGAAUGCUG [hsa-mir-676]" observed_result=0.28
residue_string=GUCUAGCUGUCCACGAGUGCUUUGUUAAGCGUGUUGACUGGAC observed_result=-0.24
residue_string="AAGACACUAUCUUACAACAACAGGGCUCUU [hsa-mir-550b-1]" observed_result=0.298
residue_string="GACAUCACUUUCUUAAAGAAAGAUGCUCCAUAUAUAGUGGGUGAUGUU [DMSMaPseq_invitro_SARS-CoV-2_Multi_15_ComplexLevel_1]" observed_result=-0.466
residue_string="GGCUGCGUGCCACCCGGGCAGCU [hsa-mir-3194]" observed_result=0.701
residue_string="ACUAGAUUUGAAUCCAGACCUUUAGU [hsa-mir-5584]" observed_result=-0.111
residue_string="AGUUGGACACUCCAUGUGGUAGAGUGUC [hsa-mir-223]" observed_result=0.0461
residue_string="GGGUCGUGGGAAAGUGUUGACCC [hsa-mir-4655]" observed_result=0.588
residue_string="CCUGUGAACAGAUUGCUGACUCCCAGCAUCGGUCUCAUAGG [IAV_invivo_M1_M2_7_Motif_10+IAV_invivo_M1_M2_7_Motif_10]" observed_result=-0.458
residue_string="GGUGGGGGCUCUGAGUGGGGAAAGUGGGGGCCUAGGGGAGGUCACAGU [hsa-mir-4259]" observed_result=2.4
residue_string="UAAUGAUUGGAGUCAUUUUCAGAGCAUUA [hsa-mir-3202-1]" observed_result=-0.537
residue_string="GUUCCUGUGAUUUUUC [hsa-mir-198]" observed_result=-0.289
residue_string="GGCAACUAGCACUCUCCAAGGGUGUUCACUUUGUUUGCAACUUGCUGUUGUUGUUUGUAACAGUUUACUCACACCUUUUGCUCGUUGCU [SHAPE_invitro_SARS-CoV-2_Motif_465]" observed_result=-0.0997

Numbers sourced from the supplement of paper PMC11865577.
